B1: HDV Ribozyme (parent)
chain: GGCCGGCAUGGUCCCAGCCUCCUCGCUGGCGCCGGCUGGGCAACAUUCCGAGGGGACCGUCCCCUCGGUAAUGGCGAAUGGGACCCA

# Variants of: B1
# protocolNotes: self-cleavage, relative activity (ratio to wild type); higher = more cleavage; co-transcriptional
Short version: self-cleavage at least 0.5 is label 1, less is label 0.

query: Quick check: does G17A C41A have self-cleavage greater than or equal to 0.5?
result: label 0

query: Quick check: does C33A A87U have self-cleavage greater than or equal to 0.5?
result: label 0

query: Quick check: does C4G G29A have self-cleavage greater than or equal to 0.5?
result: label 0

query: Quick check: does G6U A83G have self-cleavage greater than or equal to 0.5?
result: label 0

query: Quick check: does A8C U23A have self-cleavage greater than or equal to 0.5?
result: label 1

query: Quick check: does G1C G74U have self-cleavage greater than or equal to 0.5?
result: label 0

query: Quick check: does A43U A70C have self-cleavage greater than or equal to 0.5?
result: label 1

query: Quick check: does U12G G52A have self-cleavage greater than or equal to 0.5?
result: label 1

query: Quick check: does G17A G76U have self-cleavage greater than or equal to 0.5?
result: label 1

query: Quick check: does G1C G17A have self-cleavage greater than or equal to 0.5?
result: label 0

query: Quick check: does U27G G67C have self-cleavage greater than or equal to 0.5?
result: label 1

query: Quick check: does U37C A42C have self-cleavage greater than or equal to 0.5?
result: label 0

query: Quick check: does A51G A87G have self-cleavage greater than or equal to 0.5?
result: label 1

query: Quick check: does C57G G68A have self-cleavage greater than or equal to 0.5?
result: label 1

query: Quick check: does A8U U12C have self-cleavage greater than or equal to 0.5?
result: label 0

query: Quick check: does C64G A78C have self-cleavage greater than or equal to 0.5?
result: label 0

query: Quick check: does U23A G35C have self-cleavage greater than or equal to 0.5?
result: label 0

query: Quick check: does C30A G40A have self-cleavage greater than or equal to 0.5?
result: label 0

query: Quick check: does G74A C84G have self-cleavage greater than or equal to 0.5?
result: label 0

query: Quick check: does A8U A87C have self-cleavage greater than or equal to 0.5?
result: label 1

query: Quick check: does C64A A87G have self-cleavage greater than or equal to 0.5?
result: label 1
